Source: ChEMBL document CHEMBL1133565

biological target: Sodium-dependent noradrenaline transporter (Homo sapiens, UniProt P23975); test: Ratio of norepinephrine uptake to norepinephrine binding
Sequence (P23975 whole entry, looked up): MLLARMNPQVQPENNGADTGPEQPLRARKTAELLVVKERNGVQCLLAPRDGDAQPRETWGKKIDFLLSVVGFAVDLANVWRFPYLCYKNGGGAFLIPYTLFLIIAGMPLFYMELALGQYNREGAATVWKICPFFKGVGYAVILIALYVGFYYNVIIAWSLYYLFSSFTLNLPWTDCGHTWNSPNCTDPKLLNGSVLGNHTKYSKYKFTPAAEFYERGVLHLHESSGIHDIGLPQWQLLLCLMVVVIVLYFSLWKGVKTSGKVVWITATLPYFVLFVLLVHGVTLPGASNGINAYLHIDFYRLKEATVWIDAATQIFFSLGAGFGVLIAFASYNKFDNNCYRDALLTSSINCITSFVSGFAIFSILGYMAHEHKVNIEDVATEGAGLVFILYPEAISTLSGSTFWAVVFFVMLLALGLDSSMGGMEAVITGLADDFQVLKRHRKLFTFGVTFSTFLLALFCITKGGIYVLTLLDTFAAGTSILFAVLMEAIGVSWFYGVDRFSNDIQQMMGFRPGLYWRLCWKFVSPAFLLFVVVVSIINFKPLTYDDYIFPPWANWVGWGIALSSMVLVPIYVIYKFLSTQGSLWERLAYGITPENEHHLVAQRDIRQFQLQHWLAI
Where Ratio equals or exceeds 1, the correct label is yes; where it does not, the label is no.

Here are 3 compounds together with their reported answers.
{"Compound": "CC(C)(C)N[C@H]1C[C@@H](c2ccc(Cl)c(Cl)c2)c2ccccc21 (relative stereo)", "Classification": "yes"}
{"Compound": "CC(C)N[C@H]1C[C@@H](c2ccc(Cl)c(Cl)c2)c2ccccc21 (relative stereo)", "Classification": "no"}
{"Compound": "CCN(C)[C@H]1C[C@@H](c2ccc(Cl)c(Cl)c2)c2ccccc21 (relative stereo)", "Classification": "yes"}

# input Is it the case that CCCN(C)[C@@H]1C[C@@H](c2ccc(Cl)c(Cl)c2)c2ccccc21 (relative stereo) has Ratio reaching or exceeding 1?
# output yes

# input State whether the measured Ratio reaches 1, counting equality as reaching it, for CCN(C)[C@@H]1C[C@@H](c2ccc(Cl)c(Cl)c2)c2ccccc21 (relative stereo)
# output no

# input Assess whether reported Ratio for CCCN[C@@H]1C[C@@H](c2ccc(Cl)c(Cl)c2)c2ccccc21 (relative stereo) sits at 1 or higher.
# output yes

# input Kindly determine if Ratio recorded for CCCN[C@H]1C[C@@H](c2ccc(Cl)c(Cl)c2)c2ccccc21 (relative stereo) is above or exactly 1.
# output yes

# input Evaluate `CC(C)N[C@@H]1C[C@@H](c2ccc(Cl)c(Cl)c2)c2ccccc21` : Ratio at minimum 1?
# output no

# input Decide: Ratio of CCCN(C)[C@H]1C[C@@H](c2ccc(Cl)c(Cl)c2)c2ccccc21 (relative stereo) >= 1?
# output no

# input Given CC(C)(C)N[C@@H]1C[C@@H](c2ccc(Cl)c(Cl)c2)c2ccccc21 (relative stereo) , state whether its Ratio is at least 1.
# output yes

* * *

biological target: Monoamine transporters; serotonin & dopamine (Homo sapiens) (UniProt P31645+Q01959); test: Ratio of inhibition of serotonin uptake to inhibition of dopamine uptake; assay type: protein assay
Sequence (P31645 whole entry, looked up): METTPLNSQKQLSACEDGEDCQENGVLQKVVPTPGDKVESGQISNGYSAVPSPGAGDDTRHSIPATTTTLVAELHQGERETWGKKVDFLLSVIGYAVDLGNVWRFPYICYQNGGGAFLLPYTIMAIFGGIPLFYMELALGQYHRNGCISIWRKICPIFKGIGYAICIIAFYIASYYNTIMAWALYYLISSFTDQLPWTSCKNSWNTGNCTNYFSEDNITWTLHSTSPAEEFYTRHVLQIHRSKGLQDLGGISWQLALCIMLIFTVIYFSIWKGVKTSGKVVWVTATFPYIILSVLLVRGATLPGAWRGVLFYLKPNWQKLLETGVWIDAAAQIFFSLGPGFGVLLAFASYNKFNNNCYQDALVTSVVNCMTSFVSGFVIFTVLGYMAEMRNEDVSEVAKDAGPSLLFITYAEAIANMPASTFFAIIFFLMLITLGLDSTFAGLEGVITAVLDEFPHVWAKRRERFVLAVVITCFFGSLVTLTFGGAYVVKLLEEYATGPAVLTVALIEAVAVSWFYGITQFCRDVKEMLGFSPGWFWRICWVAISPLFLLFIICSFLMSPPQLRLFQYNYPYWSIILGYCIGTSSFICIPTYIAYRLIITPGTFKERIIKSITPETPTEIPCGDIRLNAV
Sequence (Q01959 whole entry, looked up): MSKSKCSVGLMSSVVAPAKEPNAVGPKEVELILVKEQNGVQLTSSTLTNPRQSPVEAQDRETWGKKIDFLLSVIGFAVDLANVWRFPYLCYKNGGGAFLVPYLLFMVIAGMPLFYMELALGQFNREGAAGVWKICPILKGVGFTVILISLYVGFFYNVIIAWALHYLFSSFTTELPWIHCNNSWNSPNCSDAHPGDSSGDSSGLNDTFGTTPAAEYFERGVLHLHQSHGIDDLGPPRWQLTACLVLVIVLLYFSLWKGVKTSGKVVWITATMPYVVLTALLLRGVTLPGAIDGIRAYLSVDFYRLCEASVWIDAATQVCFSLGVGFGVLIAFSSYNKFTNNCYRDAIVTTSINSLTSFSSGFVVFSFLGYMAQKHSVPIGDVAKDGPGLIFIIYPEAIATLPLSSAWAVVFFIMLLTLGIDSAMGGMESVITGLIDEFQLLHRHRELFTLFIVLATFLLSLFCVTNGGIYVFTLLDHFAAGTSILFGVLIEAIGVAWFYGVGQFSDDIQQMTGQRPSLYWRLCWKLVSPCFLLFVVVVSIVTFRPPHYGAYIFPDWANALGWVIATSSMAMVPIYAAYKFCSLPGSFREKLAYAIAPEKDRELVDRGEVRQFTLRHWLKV
Measure Name: Ratio
The reply should be a number, written without any unit.

Examples with answers:
{"Compound": "CC(C)(C)N[C@@H]1C[C@@H](c2ccc(Cl)c(Cl)c2)c2ccccc21 (relative stereo)", "Ratio": 8.4}
{"Compound": "CN(Cc1ccccc1)[C@@H]1C[C@@H](c2ccc(Cl)c(Cl)c2)c2ccccc21 (relative stereo)", "Ratio": 6.7}
{"Compound": "CN(C)[C@@H]1C[C@@H](c2ccc(Cl)c(Cl)c2)c2ccccc21 (relative stereo)", "Ratio": 0.033}
{"Compound": "CN(C)[C@@H]1C[C@@H](c2ccc(Cl)c(Cl)c2)c2ccccc21 (stereo in doubt; (+))", "Ratio": 0.053}
{"Compound": "CN(C)[C@@H]1C[C@@H](c2ccc(Cl)c(Cl)c2)c2ccccc21 (stereo in doubt; (-))", "Ratio": 0.02}
{"Compound": "CCN[C@@H]1C[C@@H](c2ccc(Cl)c(Cl)c2)c2ccccc21 (relative stereo)", "Ratio": 0.21}

# input Let me know recorded Ratio for CCCN(C)[C@@H]1C[C@@H](c2ccc(Cl)c(Cl)c2)c2ccccc21 (relative stereo) , thanks.
# output 0.56

# input Please report the measured Ratio for CCCN(C)[C@H]1C[C@@H](c2ccc(Cl)c(Cl)c2)c2ccccc21 (relative stereo)
# output 0.8

# input For the compound `CC(C)N(C)[C@H]1C[C@@H](c2ccc(Cl)c(Cl)c2)c2ccccc21` , give its reported Ratio.
# output 1.9

# input For the compound CC(C)N[C@H]1C[C@@H](c2ccc(Cl)c(Cl)c2)c2ccccc21 (relative stereo) , report Ratio.
# output 0.21

# input Find the measured Ratio of CCN(C)[C@@H]1C[C@@H](c2ccc(Cl)c(Cl)c2)c2ccccc21 (relative stereo) and report it.
# output 0.089
